Some compounds, each annotated with its measured melting point.

Sample answers from the record:
1. COc1ccc2c(CC(=O)N[C@@H](CC(=O)O)C(=O)O[C@@H]3CC[C@@]4(C)[C@H](CC[C@@H]5[C@@H]4CC[C@]4(C)C([C@H](C)CCC(=O)OCCOCCOCCN=[N+]=[N-])CC[C@@H]54)C3)cc(=O)oc2c1 (some centres unmarked) [Compound 13] :: 134 to 135 °C
2. C[C@H](CCC(=O)O)C1CCC2C3CC[C@@H]4C[C@H](NS(=O)(=O)c5cccc6c(N(C)C)cccc56)CC[C@]4(C)C3CC[C@@]21C (some centres unmarked) :: 136 to 138 °C
3. C[C@H](CCC(=O)O)C1CCC2C3CC[C@@H]4C[C@H](Nc5ccc([N+](=O)[O-])c6nonc56)CC[C@]4(C)C3CC[C@@]21C (some centres unmarked) :: 137 to 139 °C
4. C[C@H](CCC(=O)OCCOCCOCCN=[N+]=[N-])C1CC[C@H]2[C@@H]3CC[C@@H]4C[C@H](OC(=O)[C@H](CC(=O)O)NC(=O)c5ccc([N+](=O)[O-])cc5)CC[C@]4(C)[C@H]3CC[C@]12C (some centres unmarked) [Compound 8] :: 52 to 53 °C

--- query ---
Give its melting point value. Item: C[C@H](CCC(=O)OCCN=[N+]=[N-])C1CC[C@H]2[C@@H]3CC[C@@H]4C[C@H](OC(=O)[C@H](CC(=O)O)NC(=O)c5ccc([N+](=O)[O-])cc5)CC[C@]4(C)[C@H]3CC[C@]12C (some centres unmarked) [Compound 6]
61 to 62 °C

* * *

Some molecules, each annotated with its measured melting point.

1. C[C@H](CCC(=O)NCCOCCOCCN=[N+]=[N-])C1CCC2C3CC[C@@H]4C[C@H](NC(=O)[C@H](CC(=O)O)Nc5ccc([N+](=O)[O-])c6nonc56)CC[C@]4(C)C3CC[C@@]21C (stereo partly drawn) :: 90 to 91 °C
2. C[C@H](CCC(=O)OCCOCCN=[N+]=[N-])C1CC[C@H]2[C@@H]3CC[C@@H]4C[C@H](OC(=O)[C@H](CC(=O)O)NC(=O)c5ccc([N+](=O)[O-])cc5)CC[C@]4(C)[C@H]3CC[C@]12C (stereo partly drawn) :: 57 to 58 °C

--- query ---
Give its melting point value. Item: COc1ccc2c(CC(=O)N[C@@H](CC(=O)O)C(=O)O[C@@H]3CC[C@@]4(C)[C@H](CC[C@@H]5[C@@H]4CC[C@]4(C)C([C@H](C)CCC(=O)OCCOCCN=[N+]=[N-])CC[C@@H]54)C3)cc(=O)oc2c1 (stereo partly drawn)
142 to 143 °C
